// data source = patent US20160220557A1

# ASSAY_PROCEDURE: clinical
# APPLIED_CONDITIONS: human, in vivo, po
REPORTED_METRIC: half-life

Q) Give its half-life value. Item: Cc1nc2ccc(C(=O)N3CCC4(CC3)CC(=O)c3c(cnn3C(C)C)C4)cc2[nH]1
A) 10 to 13 h

###

# TARGET_UNDER_TEST: recombinant human ACC1 (rhACC1) (Homo sapiens, UniProt Q13085, DEL44-44)
# Construct: His6 (N)
# ASSAY_PROCEDURE: Transcreener ADP detection FP assay, recombinant human ACC1 inhibition
# APPLIED_CONDITIONS: recombinant human ACC1, 50 μM ATP; read-out: Transcreener Assay hACC1 IC50
pIC50: −log10 of the molar value.
Decide using pIC50: a value greater than or equal to 7 is T, a smaller one is F.

Please review the entries below; each comes with its answer.
Q) Determine whether this molecule has pIC50 no lower than 7: CCOc1cc(C(=O)N2CCC3(CC2)CC(=O)c2cc(-c4cncc(C(N)=O)c4)ccc2O3)cc(OCC)c1-c1cccc(C(=O)O)c1 [Example 14]
A) T

Q) Determine whether this molecule has pIC50 no lower than 7: COc1cc(C(=O)N2CCC3(CC2)CC(=O)c2cc(-c4nnn[nH]4)ccc2O3)cc2c1ccn2C1CC1 [Example 10]
A) T

Q) Determine whether this molecule has pIC50 no lower than 7: CC(=O)N[C@@H](C)CCc1ccc(Oc2ccc(OC(C)C)cc2)cc1 [Example 23]
A) F

Now look at this one.
Q) Determine whether this molecule has pIC50 no lower than 7: CCCOc1ccc(Oc2ccc(-c3ccc(C(C)NC(C)=O)cc3)cn2)cc1 (centres unmarked) [Example 13, reference compound]
A) F
